- TARGET OR TEST SYSTEM: T1, TnpAREP Ec (TnpAEc-His6) (Escherichia coli, UniProt Q47152 1-165)
- T1 sequence: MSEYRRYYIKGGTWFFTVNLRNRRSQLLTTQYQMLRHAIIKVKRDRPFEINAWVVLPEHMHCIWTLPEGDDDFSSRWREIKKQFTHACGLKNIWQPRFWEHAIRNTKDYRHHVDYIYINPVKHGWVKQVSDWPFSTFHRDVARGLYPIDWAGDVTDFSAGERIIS
- RUN DESCRIPTION: EMSA; 2 and 4 uM protein, no divalent metal; EMSA: 12.5 mM Tris pH 7.5, 120 mM NaCl, 1 mM DTT, 20 ug/ml BSA, 0.5 ug poly-dIdC, 7% glycerol, no divalent metal; 0.02 uM labelled + 0.5 uM unlabelled oligonucleotide, 45 min 37 C (standard reaction); 8% native gel (TAE, 7% glycerol) at 4 C
- COND: protein: recombinant; tags: His6 (C-terminal by name); chain copies: 2; label: 5'-32P; hairpin with bulge

- BINDER: "B268i (61) GTAC (structured_DNA) DNA: GTACGACGGATAAGGCGTTTACGCCGCATCCGGCAGTTGTACGCAGGTGCCTGATGCGACG"
  binding result: "no binding"
- BINDER: "B268i (61) GTGG (structured_DNA) DNA: GTGGGACGGATAAGGCGTTTACGCCGCATCCGGCAGTTGTACGCAGGTGCCTGATGCGACG"
  binding result: "no binding"
- BINDER: "B2689 mut loop (complement of loop) (structured_DNA) DNA: GTAGGACGGATAAGGCGTAAACGCCGCATCCGGCAGTTGTACGCAGGTGCCTGATGCGACG"
  binding result: "binds"
- BINDER: "B268i (61) wt y REPEc (structured_DNA) DNA: GTAGGACGGATAAGGCGTTTACGCCGCATCCGGCAGTTGTACGCAGGTGCCTGATGCGACG"
  binding result: "binds"
